Experiment: qHTS Assay to Identify Small Molecule Activators of BRCA1 Expression; also: nearly all actives have a fitted effect of over 80% in size; also: potency is read from the fitted curve at half-maximal effect
Details: MCF7-BRCA1-FFLuc reporter, luminescence, 48 h; series mostly up to 46.1 µM
Out of some 380,000 compounds screened, about 4,000 (1.1%) were called active. Not shown: some 3% with an inconclusive outcome. The list comes from a sample in which actives are over-represented; it also holds close analogues and randomly drawn compounds.
Readout kind: Potency

>  <Compound>
CCC(C(=O)Nc1cccc(Cl)c1C)n1nc(-c2ccc(C)cc2)ccc1=O (configuration not stated)

>  <Potency>
inactive

$$$$
>  <Compound>
O=C(c1cnn(-c2ccc(F)cc2)c1-n1cccc1)N1CCN(c2ccc(F)cc2)CC1

>  <Potency>
inactive

$$$$
>  <Compound>
COc1ccc(-c2nc3ccccc3o2)cc1NC(=O)c1cc([N+](=O)[O-])ccc1N1CCOCC1

>  <Potency>
inactive

$$$$
>  <Compound>
COc1ccc(-c2onc3ccc(C(C)=O)cc23)cc1

>  <Potency>
8.91 µM (active)

$$$$
>  <Compound>
Cc1cccc(-c2nnc(SC(C)C(=O)Nc3ccccc3)n2C)c1 (configuration not stated)

>  <Potency>
inactive

$$$$
>  <Compound>
Cc1cccc(N2O[C@H]3C=CC2CCCC3)n1

>  <Potency>
inactive

$$$$
>  <Compound>
CCn1c(SCC(=O)Nc2sc(C)c(C)c2C#N)nnc1C1CC1

>  <Potency>
inactive

$$$$
>  <Compound>
Fc1cccc(Cl)c1CSc1ccc(-c2ccco2)nn1

>  <Potency>
3.55 µM (active)

$$$$

Exam item: Query: Potency; subject: CC(=O)c1ccc(NC(=O)CCc2nc(-c3ccc(C)cc3)no2)cc1
Marked response: inactive

Exam item: Query: Potency; subject: COc1cc(-c2nnc(NC(=O)C3=COCCO3)o2)cc(OC)c1OC
Marked response: inactive

Exam item: Query: Potency; subject: COc1ccc(-c2nc(C)c(CCNC(=O)c3ccc(C(F)(F)F)cc3)s2)cc1OC
Marked response: inactive

Exam item: Query: Potency; subject: COc1ccc(NC(=O)CSc2ccc(-c3ccco3)nn2)c(OC)c1
Marked response: inactive

Exam item: Query: Potency; subject: O=C(/C=C/c1ccc(N2CCOCC2)cc1)c1ccccc1
Marked response: 3.16 µM (active)

Exam item: Query: Potency; subject: CCOC(=O)c1sc(N)c(C#N)c1COC(=O)C1=COCCO1
Marked response: inactive

---

Assay: qHTS Assay to Identify Small Molecule Activators of BRCA1 Expression; also: nearly all actives have a fitted effect of over 80% in size
Settings: MCF7-BRCA1-FFLuc reporter, luminescence, 48 h; series mostly up to 46.1 µM
The campaign covered roughly 380,000 compounds. About 4,000 (1.1%) were called active. Roughly 3% stayed inconclusive and do not appear here. The call rests on the fitted dose curve; in most records, active means well fitted activation curve with a large enough effect; inconclusive means small, poorly fitted or top-dose-only effect; inactive means no such curve, though single readings can be large or run the other way. The list comes from a sample in which actives are over-represented; it also holds close analogues and randomly drawn compounds.
Outcome field: choose from active, inactive

Take a look at these entries with their results.
>  <Compound>
O=C(NCC1CCCO1)c1cc2c(s1)CCCC2 (stereo not given)

>  <Answer label>
active

$$$$
>  <Compound>
Cc1cc2c(cc1C)C(c1cccc(OC(C)C)c1)CC(=O)N2 (stereo not given)

>  <Answer label>
inactive

$$$$
>  <Compound>
ClC/C=C/C[n+]1ccccc1Cl

>  <Answer label>
inactive

$$$$
>  <Compound>
CCn1c2ccc(F)cc2c2nnc(SCCN3CCOCC3)nc21

>  <Answer label>
inactive

$$$$
>  <Compound>
CCn1cc2nc(SCc3cccc(F)c3)n(CCc3ccccc3)c(=O)c2n1

>  <Answer label>
inactive

$$$$

Exam item: Could you please tell me the result logged for NC(=O)Nc1ccc(/C=C/c2ccnc3ccccc23)cc1 in this assay?
Marked response: inactive

Exam item: Could you please tell me the result logged for CCOc1ccc(C(O)Cn2c(=N)n(CCN3CCCCC3)c3ccccc32)cc1 (stereo not given) in this assay?
Marked response: inactive

Exam item: Could you please tell me the result logged for O=C(CSc1nc(=O)n(Cc2cccnc2)c2c1CCC2)Nc1ccc(F)cc1F in this assay?
Marked response: inactive

Exam item: Could you please tell me the result logged for COc1cc(OC)cc(C(=O)Nc2c(C(=O)Nc3ccc(F)cc3)oc3ccccc23)c1 in this assay?
Marked response: inactive

Exam item: Could you please tell me the result logged for CCC(=O)c1c[nH]c(C(=O)NCC2CCCO2)c1 (stereo not given) in this assay?
Marked response: inactive
